Values compiled from patent US8247211B2.

system: Staphylococcus sp.; experiment: In vitro antibacterial evaluation: minimum inhibitory concentration (MIC), broth dilution method; format: cell-based; conditions: strain GC 3051
Description: […]
A collection of compounds and their measured MIC Staphylococcus aureus (GC 3051)
Form entry: value (µg/mL) — number only.

CC(C)=CCCC1OCC2OC(OC3C(CO)OC(Oc4ccc(CC5NC(=O)C(C(C)c6ccccc6)NC(=O)CNC(=O)C(CO)NC(=O)C(C(O)C6CNC(=N)N6C6OC(CO)C(O)C(O)C6O)NC(=O)C(C(O)C6CNC(=N)N6)NC5=O)cc4)C(O)C3O)C(O)C(O)C2O1 (stereo not shown)    8
CC(c1ccccc1)C1NC(=O)CNC(=O)C(CO)NC(=O)C(C(O)C2CNC(=N)N2C2OC(CO)C(O)C(O)C2O)NC(=O)C(C(O)C2CNC(=N)N2)NC(=O)C(Cc2ccc(OC3OC(CO)C(OC4OC5COC(Cc6ccc(F)cc6)OC5C(O)C4O)C(O)C3O)cc2)NC1=O (stereo not shown)    1
CC(c1ccccc1)C1NC(=O)CNC(=O)C(CO)NC(=O)C(C(O)C2CNC(=N)N2C2OC(CO)C(O)C(O)C2O)NC(=O)C(C(O)C2CNC(=N)N2)NC(=O)C(Cc2ccc(OC3OC(CO)C(OC4OC5COC(C67CC8CC(CC(C8)C6)C7)OC5C(O)C4O)C(O)C3O)cc2)NC1=O (stereo not shown)    2

# next compound below
Give the reported value of MIC Staphylococcus aureus (GC 3051) for this record: N=C1NCC(C(O)C2NC(=O)C(Cc3ccc(OC4OC(CO)C(OC5OC6COC(c7ccccc7)OC6C(O)C5O)C(O)C4O)cc3)NC(=O)C(CC3CCCCC3)NC(=O)CNC(=O)C(CO)NC(=O)C(C(O)C3CNC(=N)N3C3OC(CO)C(O)C(O)C3O)NC2=O)N1 (stereo not shown) 1

###

A collection of compounds and their measured MIC Enterococcus faecium (GC 4557)
tested on: Enterococcus sp.; assay: In vitro antibacterial evaluation: minimum inhibitory concentration (MIC), broth dilution method; assay type: cell-based; conditions: strain GC 4557
Form entry: value (µg/mL) — number only.

Examples with their reported MIC Enterococcus faecium (GC 4557) follow.
CC(c1ccccc1)C1NC(=O)CNC(=O)C(CO)NC(=O)C(C(O)C2CNC(=N)N2C2OC(CO)C(O)C(O)C2O)NC(=O)C(C(O)C2CNC(=N)N2)NC(=O)C(Cc2ccc(OC3OC(CO)C(OC4OC5COC(c6ccc(C(=O)O)cc6)OC5C(O)C4O)C(O)C3O)cc2)NC1=O (centres unmarked) [Example 141]    64
CCCCCCN=C1NCC(C(O)C2NC(=O)C(C(O)C3CNC(=N)N3)NC(=O)C(Cc3ccc(OC4OC(CO)C(OC5OC6COC7(OC6C(O)C5O)C5CC6CC(C5)CC7C6)C(O)C4O)cc3)NC(=O)C(C(C)c3ccccc3)NC(=O)CNC(=O)C(CO)NC2=O)N1C1OC(CO)C(O)C(O)C1O (centres unmarked) [Example 84]    1
CSc1ccc(C2OCC3OC(OC4C(CO)OC(Oc5ccc(CC6NC(=O)C(C(C)c7ccccc7)NC(=O)CNC(=O)C(CO)NC(=O)C(C(O)C7CNC(=N)N7C7OC(CO)C(O)C(O)C7O)NC(=O)C(C(O)C7CNC(=N)N7)NC6=O)cc5)C(O)C4O)C(O)C(O)C3O2)cc1 (centres unmarked) [Example 144]    2

Send back Enterococcus sp. MIC Enterococcus faecium (GC 4557) of CC(c1ccccc1)C1NC(=O)CNC(=O)C(CO)NC(=O)C(C(O)C2CNC(=N)N2C2OC(CO)C(O)C(O)C2O)NC(=O)C(C(O)C2CNC(=N)N2)NC(=O)C(Cc2ccc(OC3OC(CO)C(OC4OC5COC(c6cc7c(cc6Cl)OCO7)OC5C(O)C4O)C(O)C3O)cc2)NC1=O (centres unmarked) [Example 158] only. 2

Send back Enterococcus sp. MIC Enterococcus faecium (GC 4557) of COc1cccc(C2OC3C(OC4C(CO)OC(Oc5ccc(CC6NC(=O)C(C(C)c7ccccc7)NC(=O)CNC(=O)C(CO)NC(=O)C(C(O)C7CNC(=N)N7C7OC(CO)C(O)C(O)C7O)NC(=O)C(C(O)C7CNC(=N)N7)NC6=O)cc5)C(O)C4O)OC(CO)C(O)C3O2)c1 (single isomer, unassigned) [Example 137a] only. 16
